The values you see were collected from patent US6903052B2.

Test system: M. javanica
Test: Nematicidal activity of fatty acid methyl ester emulsions, spectrum (Example 8)
Format: cell-based, Meloidogyne javanica
Conditions: M. javanica 2nd stage juveniles, 0.1% solution; scored at 48 hours
In this section, each of the molecules is paired with its reported % Worm Death (48 hr).
Record the value in %, omitting the unit from your answer.

For reference, reported % Worm Death (48 hr) for CCCCCCC(O)C/C=C\CCCCCCCC(=O)OC (centres unmarked) stands at 60

----------
System: M. javanica
Assay: Nematicidal activity of fatty acid methyl ester emulsions against root knot nematode J2 larvae (Example 6)
Type: cell-based, Meloidogyne javanica
Details: 0.1% emulsion; 48 hours incubation, counted about 24 hours after transfer to plates
metric: M. javanica (% not viable)

For reference, reported M. javanica (% not viable) for CCCCCCC(O)C/C=C\CCCCCCCC(=O)OC (stereo not shown) stands at 60%
